- subjectOfTest: human 5-HT2C-INI (Homo sapiens)
- Sequence (P28335 33-458): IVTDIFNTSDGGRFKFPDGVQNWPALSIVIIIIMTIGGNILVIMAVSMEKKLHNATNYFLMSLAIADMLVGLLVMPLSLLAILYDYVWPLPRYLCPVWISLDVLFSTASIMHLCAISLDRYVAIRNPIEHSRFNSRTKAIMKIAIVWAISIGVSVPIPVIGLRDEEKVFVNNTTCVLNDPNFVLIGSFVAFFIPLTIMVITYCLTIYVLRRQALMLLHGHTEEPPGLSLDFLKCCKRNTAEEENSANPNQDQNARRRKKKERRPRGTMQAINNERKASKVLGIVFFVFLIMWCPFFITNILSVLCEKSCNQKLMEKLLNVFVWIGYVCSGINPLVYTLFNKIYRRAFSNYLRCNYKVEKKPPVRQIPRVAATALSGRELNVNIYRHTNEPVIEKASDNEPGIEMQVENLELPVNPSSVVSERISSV
- assayRemarks: Calcium flux (FLIPR) assay, human 5-HT2C-INI stably expressed in HEK-293 (Flp-In-293) cells
- experimentalParameters: EC50, nM 5-HT2C, human 5-HT2C-INI in HEK-293 cells, FLIPR; NA = no activity at 10 μM
# EC50 annotations
// units = nM; emit number, no label

Below: 4 molecules and their reported EC50.
For the molecule COc1cc(F)c(Cl)cc1[C@@H]1C[C@H]1CN (single isomer, unassigned) [(+)-Example 1] , report EC50.
7.6

Assign EC50 to the following record: C=CCOc1ccc(Cl)cc1C1CC1CN (single isomer, unassigned; (-)) [(−)-Example 23]
737

Supply reported EC50 belonging to this molecule: C=CCOc1ccc(Cl)c(F)c1C1CC1CN (single isomer, unassigned; (-)) [(−)-Example 32]
165

Give the value of EC50 reported for the following: NCC1CC1c1cc(Cl)c(F)cc1OCCF (single isomer, unassigned; (-)) [(−)-Example 4]
776

Further cases:
Consider the molecule CCOc1cc(F)c(Cl)cc1C1CC1CN (single isomer, unassigned; (+)) [(+)-Example 2] . State its measured EC50.
4.1

Quickly give me recorded EC50 for CC(C)Oc1ccc(Cl)cc1C1CC1CN (single isomer, unassigned; (-)) [(−)-Example 14]
2480
